# target desc: T1, monomeric human TNFR2 extracellular domain (human, UniProt P20333 23-257)
# T1 construct: extracellular domain; Analyte in the Octet experiments; also called human TNFR2 ECD
# T1 sequence (looked up): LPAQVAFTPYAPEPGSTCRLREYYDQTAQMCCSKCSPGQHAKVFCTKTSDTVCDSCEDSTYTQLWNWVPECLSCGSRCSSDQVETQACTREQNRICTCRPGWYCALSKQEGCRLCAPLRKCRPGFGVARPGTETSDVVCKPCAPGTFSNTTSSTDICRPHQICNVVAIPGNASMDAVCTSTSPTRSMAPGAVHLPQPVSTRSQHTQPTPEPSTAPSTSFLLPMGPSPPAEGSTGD
# experiment description: BLI (Octet Red 96), Human TNFR2 Kd (1-1)
pKd: −log10 of the molar value.
readout name: pKd

- SBT-002 (antibody, V domains shown, Parental mouse antibody; also called mouse SBT-002) VH: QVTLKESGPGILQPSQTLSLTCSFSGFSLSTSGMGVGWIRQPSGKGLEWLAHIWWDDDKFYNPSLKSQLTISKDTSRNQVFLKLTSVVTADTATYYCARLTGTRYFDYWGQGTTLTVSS VL: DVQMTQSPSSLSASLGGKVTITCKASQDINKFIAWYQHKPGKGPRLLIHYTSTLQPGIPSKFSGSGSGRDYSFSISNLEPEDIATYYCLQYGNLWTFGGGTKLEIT: 8.89
- SBT-003 (antibody, V domains shown, Parental mouse antibody; also called mouse SBT-003) VH: QIQLVQSGPELKKPGETVKISCKASGYTFTDYSMHWVKQAPGKGLKWMGWINTETGEPTYADDFKGRFAFSSETSTSTAYLQINNLKNDDTTTYFCATYYGSSYVPDYWGQGTSLTVSS VL: DIVMTQSHKFMSTSVGDRVSITCKASQNVGTAVAWYQHKPGQSPKLLIYWTSSRHTGVPDRFTGSGSGTEFTLTISNVQSEDLADYFCHQYSDYPYTFGGGTKLEIK: 8.92
- chimeric SBT-003 Fc null (antibody, V domains shown, also called chSBT-003n) VH: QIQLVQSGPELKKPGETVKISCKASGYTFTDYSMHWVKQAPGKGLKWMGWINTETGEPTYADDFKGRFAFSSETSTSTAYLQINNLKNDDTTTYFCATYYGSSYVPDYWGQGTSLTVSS VL: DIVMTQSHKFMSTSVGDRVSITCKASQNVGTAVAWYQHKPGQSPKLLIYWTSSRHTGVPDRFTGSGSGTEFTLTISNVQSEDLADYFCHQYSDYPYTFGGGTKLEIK: 9.00
